# Measured target: Pyk1 (Streptomyces coelicolor)
# Construct: E. coli codon-optimized gene; E. coli Origami B host
# Sequence (Q9S2I9 1-478): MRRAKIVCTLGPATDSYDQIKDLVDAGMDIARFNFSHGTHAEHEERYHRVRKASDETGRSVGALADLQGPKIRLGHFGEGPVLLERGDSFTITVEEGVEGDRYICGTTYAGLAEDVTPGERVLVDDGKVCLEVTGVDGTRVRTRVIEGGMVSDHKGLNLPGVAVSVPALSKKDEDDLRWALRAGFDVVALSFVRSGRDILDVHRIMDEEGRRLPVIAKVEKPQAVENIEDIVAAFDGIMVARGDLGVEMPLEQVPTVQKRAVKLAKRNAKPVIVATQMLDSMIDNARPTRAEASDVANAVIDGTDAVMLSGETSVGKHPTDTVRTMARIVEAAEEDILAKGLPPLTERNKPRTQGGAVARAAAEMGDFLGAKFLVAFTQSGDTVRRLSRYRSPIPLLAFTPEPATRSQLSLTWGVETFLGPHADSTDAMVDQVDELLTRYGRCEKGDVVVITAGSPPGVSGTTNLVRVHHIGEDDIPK
# Assay details: pyruvate kinase activity assay, purified enzyme, Hill or Michaelis-Menten fit
# Protocol conditions: activator; PEP and ADP concentrations not told; read-out: No AMP / Pyk1
Reported metric: pEC50
Numbers only, as −log10 of the molar value.

Ask: Name the recorded pEC50 for Nc1ncnc2c1ncn2[C@@H]1O[C@H](COP(=O)(O)O)[C@@H](O)[C@H]1O .
Reply: 5.00

---

# Measured target: Pyk2 (Streptomyces coelicolor, UniProt Q9L299)
# Construct: native gene; E. coli Rosetta host
# Sequence (Q9L299 1-476): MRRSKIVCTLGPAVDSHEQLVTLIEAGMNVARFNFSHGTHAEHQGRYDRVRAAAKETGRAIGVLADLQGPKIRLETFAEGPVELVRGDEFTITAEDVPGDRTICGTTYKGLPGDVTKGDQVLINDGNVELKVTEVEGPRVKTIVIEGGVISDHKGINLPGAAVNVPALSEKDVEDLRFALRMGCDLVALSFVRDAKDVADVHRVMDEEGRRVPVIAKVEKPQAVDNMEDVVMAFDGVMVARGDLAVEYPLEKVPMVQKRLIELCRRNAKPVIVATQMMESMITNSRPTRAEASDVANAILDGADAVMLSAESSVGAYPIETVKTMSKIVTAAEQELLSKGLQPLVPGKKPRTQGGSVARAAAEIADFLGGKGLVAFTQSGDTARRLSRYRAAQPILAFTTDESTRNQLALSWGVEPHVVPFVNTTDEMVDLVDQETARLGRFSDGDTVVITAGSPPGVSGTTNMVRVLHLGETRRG
# Assay details: pyruvate kinase activity assay, purified enzyme, Hill or Michaelis-Menten fit
# Protocol conditions: activator; PEP and ADP concentrations not told; read-out: No AMP / Pyk2
Reported metric: EC50 (mM)
One number for each entry, in mM.

Ask: Name the recorded EC50 for Nc1ncnc2c1ncn2[C@@H]1O[C@H](COP(=O)(O)O)[C@@H](O)[C@H]1O .
Reply: 3.8
